We begin with a simple list: items and their reported bioavailability.
Experiment: Rodent pharmacokinetics (rat PK)
Assay type: in vivo
Conditions: po, dosed intravenously or orally by gavage, plasma, read-out: F % (bioavailability)

COMPOUND: Cn1c(=O)n(C2CCC(=O)NC2=O)c2cccc(N3CC(COC[C@H]4CC[C@H](n5cc(NC(=O)c6cnn7ccc(N8C[C@H]9C[C@@H]8CO9)nc67)c(C(F)F)n5)CC4)C3)c21 (some centres unmarked)
bioavailability: ≤ 5%
//
COMPOUND: Cn1c(=O)n(C2CCC(=O)NC2=O)c2cccc(N3CC4(CCN(C[C@H]5CC[C@H](n6cc7cc(NC(=O)c8cncc(C(F)(F)F)c8)c(C(C)(C)O)cc7n6)CC5)CC4(F)F)C3)c21 (some centres unmarked)
bioavailability: ≤ 5%
//
COMPOUND: COc1ccc2c(c1N1CC3(CCN(C[C@H]4CC[C@H](c5nc6cc(C(C)(C)O)c(NC(=O)c7cccc(C(F)(F)F)n7)cc6s5)CC4)CC3(F)F)C1)n(C)c(=O)n2C1CCC(=O)NC1=O (some centres unmarked)
bioavailability: ≤ 5%
//
COMPOUND: Cn1c(=O)n(C2CCC(=O)NC2=O)c2cccc([C@@H]3CCN(C[C@H]4CC[C@H](n5cc6cc(NC(=O)c7cncc(C#N)c7)ccc6n5)CC4)C[C@H]3F)c21 (some centres unmarked)
bioavailability: ≤ 5%

Proceed to the following item.
Req: If you can, please state the reported bioavailability value of COc1ccc2c(c1[C@@H]1CCN(C[C@H]3CC[C@H](n4cc5cc(NC(=O)c6cncc(C(F)(F)F)n6)ccc5n4)CC3)CC1(F)F)n(C)c(=O)n2C1CCC(=O)NC1=O (single isomer, unassigned) .
Resp: ≥ 5%

---

Target: IRAK4 (Homo sapiens, UniProt Q9NWZ3)
Construct: endogenous in cells; host or cells: OCI-LY10
Sequence (Q9NWZ3 whole entry): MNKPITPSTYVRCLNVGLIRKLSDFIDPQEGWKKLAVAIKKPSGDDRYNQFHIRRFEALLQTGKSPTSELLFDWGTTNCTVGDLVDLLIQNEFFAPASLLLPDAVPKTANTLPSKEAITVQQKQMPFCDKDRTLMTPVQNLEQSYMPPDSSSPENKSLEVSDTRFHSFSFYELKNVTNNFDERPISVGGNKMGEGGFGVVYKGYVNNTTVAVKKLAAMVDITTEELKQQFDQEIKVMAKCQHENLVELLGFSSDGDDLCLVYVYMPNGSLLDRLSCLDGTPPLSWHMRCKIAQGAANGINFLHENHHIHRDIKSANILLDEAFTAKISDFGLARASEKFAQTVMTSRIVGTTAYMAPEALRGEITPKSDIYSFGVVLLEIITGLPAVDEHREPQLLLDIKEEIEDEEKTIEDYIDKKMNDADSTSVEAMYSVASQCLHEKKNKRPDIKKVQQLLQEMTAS
Test: IRAK4 MSD degradation in OCI-LY10
Type: cell-based
Conditions: OCI-LY10 cells, 24 hrs, Meso Scale Discovery
The entries below come with measured DC50 values attached.

Worked set:
COMPOUND: Cn1c(=O)n(C2CCC(=O)NC2=O)c2cccc(OC3CC4(CCN(Cc5ccc(-n6cc(NC(=O)c7cnn8ccc(N9C[C@H]%10C[C@@H]9CO%10)nc78)c(C(F)F)n6)cc5)CC4)C3)c21 (stereo partly shown)
TARGET OR SYSTEM: IRAK4 (Homo sapiens, UniProt Q9NWZ3)
DC50: < 0.01 µM
--
COMPOUND: CC(C)Oc1cc2nc([C@H]3CC[C@H](CN4CCC(c5ccc6c(c5)n(C)c(=O)n6C5CCC(=O)NC5=O)CC4)CC3)cn2cc1C(=O)Nc1cccn([C@H]2C[C@H]2F)c1=O (stereo partly shown)
TARGET OR SYSTEM: IRAK4 (Homo sapiens, UniProt Q9NWZ3)
DC50: < 0.01 µM
--
COMPOUND: Cn1c(=O)n(C2CCC(=O)NC2=O)c2cccc(N3CCN(C[C@H]4CC[C@H](n5cc6cc(NC(=O)c7cncc(C(F)(F)F)n7)ccc6n5)CC4)[C@@H](C(F)(F)F)C3)c21 (stereo partly shown)
TARGET OR SYSTEM: IRAK4 (Homo sapiens, UniProt Q9NWZ3)
DC50: 0.1 to 0.2 µM
--
COMPOUND: Cn1c(=O)n(C2CCC(=O)NC2=O)c2cccc([C@@H]3CCN(C[C@H]4CC[C@H](n5cc6cc(NC(=O)c7cncc(C(F)(F)F)n7)ncc6n5)CC4)C[C@H]3F)c21 (stereo partly shown)
TARGET OR SYSTEM: IRAK4 (Homo sapiens, UniProt Q9NWZ3)
DC50: < 0.01 µM
--
COMPOUND: Cc1nn(C2CCC(=O)NC2=O)c2cccc([C@H]3CCN(C[C@H]4CC[C@H](n5cc6cc(NC(=O)c7cncc(C(F)(F)F)n7)ccc6n5)CC4)CC3(F)F)c12 (single isomer, unassigned)
TARGET OR SYSTEM: IRAK4 (Homo sapiens, UniProt Q9NWZ3)
DC50: 0.01 to 0.1 µM
--
COMPOUND: CN(C[C@H]1CC[C@H](n2cc3cc(NC(=O)c4cccc(C(F)(F)F)n4)ccc3n2)CC1)[C@H]1CCN(c2cccc3c2n(C)c(=O)n3C2CCC(=O)NC2=O)C[C@H]1F (stereo partly shown)
TARGET OR SYSTEM: IRAK4 (Homo sapiens, UniProt Q9NWZ3)
DC50: < 0.01 µM
--
COMPOUND: Cn1c(=O)n(C2CCC(=O)NC2=O)c2ccc([C@@H]3CCN(C[C@H]4CC[C@H](n5cc6cc(NC(=O)c7cncc(C(F)(F)F)n7)ccc6n5)CC4)C[C@H]3F)cc21 (single isomer, unassigned)
TARGET OR SYSTEM: IRAK4 (Homo sapiens, UniProt Q9NWZ3)
DC50: > 0.2 µM
--
COMPOUND: Cn1c(=O)n(C2CCC(=O)NC2=O)c2cccc(N3CCC(F)(CN4CCC(c5nc6cc(C(C)(C)O)c(NC(=O)c7cccc(C(F)(F)F)n7)cc6o5)CC4)CC3)c21 (stereo not shown)
TARGET OR SYSTEM: IRAK4 (Homo sapiens, UniProt Q9NWZ3)
DC50: > 0.2 µM

Req: Given the entry O=C1CCC(Nc2cccc(N3CCN(C[C@H]4CC[C@H](n5cc6cc(NC(=O)c7cccc(C(F)(F)F)n7)ncc6n5)CC4)CC3)c2)C(=O)N1 (stereo partly shown) , report its measured DC50.
Resp: > 0.2 µM

Req: Fill in: DC50 of Cn1c(=O)n(C2CCC(=O)NC2=O)c2cccc(N3CC4(CCN(C[C@H]5CC[C@H](n6cc7cc(NC(=O)c8cccc(C(F)(F)F)c8)ncc7n6)CC5)CC4(F)F)C3)c21 (stereo partly shown) is ___
Resp: < 0.01 µM

---

Overview of recorded bioavailability for various molecules
Assay: Rodent pharmacokinetics (rat PK)
Assay type: in vivo
Conditions: po, dosed intravenously or orally by gavage, plasma, read-out: F % (bioavailability)
Description: All studies related to handling, care, and treatment of rats in the study were performed according to the guidelines approved by the Institutional Animal Care and Use Committee (IACUC). All rats had access to food and water ad libitum. Rats were dosed intravenously or orally by gavage. Whole blood was collected from the jugular vein immediately prior to dosing and at 5 (intravenously administered drugs only), 15, and 30 min and 1, 2, 4, 8, and 24 h after drug administration. […]

Sample records with bioavailability:
MOLECULE: Cn1c(=O)n(C2CCC(=O)NC2=O)c2cccc([C@H]3CCN(C[C@H]4CC[C@H](n5cc6cc(NC(=O)c7cncc(C(F)(F)F)n7)ccc6n5)CC4)CC3(F)F)c21 (single isomer, unassigned) [I-180]
bioavailability: ≥ 5%
//
MOLECULE: Cn1c(=O)n(C2CCC(=O)NC2=O)c2ccc(F)c(N3CC(N4CCN([C@H]5CC[C@H](n6cc(NC(=O)c7cnn8ccc(N9C[C@H]%10C[C@@H]9CO%10)nc78)c(C(F)F)n6)CC5)CC4)C3)c21 (stereo partly shown) [I-117]
bioavailability: ≥ 5%
//
MOLECULE: COc1cc2nc([C@H]3CC[C@H](CN4CCC5(CN(c6cccc7c6n(C)c(=O)n7C6CCC(=O)NC6=O)C5)C(F)(F)C4)CC3)sc2cc1NC(=O)c1cncc(C#N)c1 (stereo partly shown) [I-110]
bioavailability: ≤ 5%
//
MOLECULE: CN(C[C@H]1CC[C@H](c2cn3cc(NC(=O)c4cncc(C(F)(F)F)n4)ccc3n2)CC1)[C@@H]1CCN(c2cccc3c2n(C)c(=O)n3C2CCC(=O)NC2=O)C[C@H]1F (single isomer, unassigned) [I-293]
bioavailability: ≤ 5%
//
MOLECULE: Cn1c(=O)n(C2CCC(=O)NC2=O)c2ccc(F)c([C@@H]3CCN(C[C@H]4CC[C@H](n5cc6cc(NC(=O)c7cncc(C#N)c7)c(C(C)(C)O)cc6n5)CC4)CC3(F)F)c21 (single isomer, unassigned) [I-226]
bioavailability: ≤ 5%

Please examine the following record next.
Req: Can you look up the measured bioavailability of CN(C[C@H]1CC[C@H](n2cc(NC(=O)c3cnn4ccc(N5C[C@H]6C[C@@H]5CO6)nc34)c(C(F)F)n2)CC1)[C@H]1CCN(c2cccc3c2n(C)c(=O)n3C2CCC(=O)NC2=O)C[C@@H]1F (single isomer, unassigned) [I-28] for me?
Resp: ≥ 5%

---

Molecular target: IRAK4 (Homo sapiens, UniProt Q9NWZ3)
Construct: endogenous in cells; host or cells: OCI-LY10
Assay: IRAK4 MSD degradation in OCI-LY10
Type: cell-based
Details: OCI-LY10 cells, 24 hrs, Meso Scale Discovery
Property: DC50; scope: individual compounds

COMPOUND: Cn1nc(C2CCC(=O)NC2=O)c2cccc([C@@H]3CCN(C[C@H]4CC[C@H](n5cc6cc(NC(=O)c7cncc(C(F)(F)F)n7)ncc6n5)CC4)C[C@H]3F)c21 (single isomer, unassigned) [I-370]
TARGET OR SYSTEM: IRAK4 (Homo sapiens, UniProt Q9NWZ3)
MEASURED VALUE: < 0.01 µM

COMPOUND: Cc1cc(C(=O)Nc2ccc3nn([C@H]4CC[C@H](CN5CC[C@@H](c6cccc7c6n(C)c(=O)n7C6CCC(=O)NC6=O)C(F)(F)C5)CC4)cc3c2)nc(C(F)(F)F)c1 (stereo partly shown) [I-402]
TARGET OR SYSTEM: IRAK4 (Homo sapiens, UniProt Q9NWZ3)
MEASURED VALUE: > 0.2 µM

COMPOUND: COc1cc2nn([C@H]3CC[C@H](CN4CC[C@@H](c5cccc6c5n(C)c(=O)n6C5CCC(=O)NC5=O)C(F)(F)C4)CC3)cc2cc1NC(=O)c1cncc(C#N)c1 (single isomer, unassigned) [I-240]
TARGET OR SYSTEM: IRAK4 (Homo sapiens, UniProt Q9NWZ3)
MEASURED VALUE: < 0.01 µM

COMPOUND: Cn1c(=O)n(C2CCC(=O)NC2=O)c2cccc([C@@H]3CCN(C[C@H]4CC[C@H](n5cc6cc(NC(=O)c7cncc(C8CC8)n7)ccc6n5)CC4)C[C@H]3F)c21 (stereo partly shown) [I-311]
TARGET OR SYSTEM: IRAK4 (Homo sapiens, UniProt Q9NWZ3)
MEASURED VALUE: < 0.01 µM

COMPOUND: COc1cc2nn([C@H]3CC[C@H](COCC4CN(c5cccc6c5n(C)c(=O)n6C5CCC(=O)NC5=O)C4)CC3)cc2cc1NC(=O)c1cncc(C#N)c1 (stereo partly shown) [I-270]
TARGET OR SYSTEM: IRAK4 (Homo sapiens, UniProt Q9NWZ3)
MEASURED VALUE: 0.01 to 0.1 µM

Req: I have this compound here, CN(C[C@H]1CC[C@H](c2nc3cc(C(C)(C)O)c(NC(=O)c4cccc(C(F)(F)F)c4)cc3s2)CC1)[C@@H]1CCN(c2cccc3c2n(C)c(=O)n3C2CCC(=O)NC2=O)C[C@@H]1F (single isomer, unassigned) [I-192] , and I need its recorded DC50.
Resp: < 0.01 µM

Req: May I ask what DC50 has been recorded for Cc1nn(C2CCC(=O)NC2=O)c2cccc([C@@H]3CCN(C[C@H]4CC[C@H](n5cc6cc(NC(=O)c7cccc(C(F)(F)F)n7)ncc6n5)CC4)C[C@H]3F)c12 (stereo partly shown) [I-187] ?
Resp: 0.01 to 0.1 µM

Req: Would you kindly share the measured DC50 for COc1ccc2c(c1N1CC3(CCN(C[C@H]4CC[C@H](c5nc6cc(C(C)(C)O)c(NC(=O)c7cncc(C#N)c7)cc6o5)CC4)CC3(F)F)C1)n(C)c(=O)n2C1CCC(=O)NC1=O (stereo partly shown) [I-413] ?
Resp: > 0.2 µM

Req: Return reported DC50; argument: O=C1CCC(c2ccc(N3CC(N4CCN([C@H]5CC[C@H](n6cc(NC(=O)c7cnn8ccc(N9CCCC9)nc78)c(C(F)F)n6)CC5)CC4)C3)cc2Cl)C(=O)N1 (stereo partly shown) [I-14]
Resp: < 0.01 µM

Origin of the recorded values: patent US20250059164A1
